Give measured inhibition at 1 µM for each item. Keep answers brief.
TARGET SYSTEM: Cloned Human Serotonin Receptor, Subtype 7 (h5HT7), expressed in CHO cells (Homo sapiens, UniProt P34969)
Construct: purchased PerkinElmer 6120512; host or cells: CHO cells (membranes coated on FlashPlate)
Sequence (P34969 whole entry): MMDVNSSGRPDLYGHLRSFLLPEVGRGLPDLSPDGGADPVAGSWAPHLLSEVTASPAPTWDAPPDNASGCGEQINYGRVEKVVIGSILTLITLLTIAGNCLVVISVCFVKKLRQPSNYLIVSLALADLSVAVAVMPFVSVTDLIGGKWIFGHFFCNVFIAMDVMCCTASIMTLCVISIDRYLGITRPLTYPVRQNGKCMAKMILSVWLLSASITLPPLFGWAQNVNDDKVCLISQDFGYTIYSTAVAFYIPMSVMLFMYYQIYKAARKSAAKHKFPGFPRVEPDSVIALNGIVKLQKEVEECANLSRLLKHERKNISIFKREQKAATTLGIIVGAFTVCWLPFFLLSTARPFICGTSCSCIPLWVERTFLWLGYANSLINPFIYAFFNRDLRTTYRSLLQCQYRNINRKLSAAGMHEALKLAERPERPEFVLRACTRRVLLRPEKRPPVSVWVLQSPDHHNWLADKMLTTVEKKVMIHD
ASSAY PROTOCOL: Radioligand binding, [125I]LSD, Flashplate
TEST CONTEXT: compound at 10^−6 M; radioligand [125I]LSD 0.82 nM; read-out: %-Inhib. (10^−6 M)
Hey, just the number and the unit after it is fine.

**Query** Entry O=c1[nH]c2ccccc2n1C1=CCN(CCOc2ccccc2)CC1 needs its inhibition at 1 µM filled in; supply it.
**Result** 85.3%

**Query** Entry COc1ccccc1N1CCN(CCC(=O)Nc2ccc3c(c2)CCC3)CC1 needs its inhibition at 1 µM filled in; supply it.
**Result** 65.7%

**Query** Entry COc1ccccc1N1CCN(CCC(O)c2ccccc2)CC1 (centres unmarked) needs its inhibition at 1 µM filled in; supply it.
**Result** 78.5%

**Query** Entry CC(C)Oc1ccccc1N1CCN(Cc2ccc(Cl)nc2)CC1 needs its inhibition at 1 µM filled in; supply it.
**Result** 82.5%

**Query** Entry O=c1[nH]c2ccccc2n1C1CCN(CCOc2ccccc2)CC1 needs its inhibition at 1 µM filled in; supply it.
**Result** 76.1%

----------
TARGET SYSTEM: Cloned Human Serotonin Receptor, Subtype 7 (h5HT7), expressed in CHO cells (Homo sapiens, UniProt P34969)
Construct: purchased PerkinElmer 6120512; host or cells: CHO cells (membranes coated on FlashPlate)
ASSAY PROTOCOL: Radioligand binding, [125I]LSD, Flashplate
Give measured pIC50 for each item. Keep answers brief.
pIC50 (log units): -log10 of the concentration in mol/L.

**Query** Entry CCOc1ccccc1N1CCN(Cc2c[nH]c3ccccc23)CC1 needs its pIC50 filled in; supply it.
**Result** 6.36

**Query** Entry COc1ccc(C(C)C)cc1CN1CCN(c2cccc3[nH]ccc23)CC1 needs its pIC50 filled in; supply it.
**Result** 7.54

**Query** Entry O=C(c1cccs1)C1CN2CCC1CC2 (stereo not drawn) needs its pIC50 filled in; supply it.
**Result** 6.01

----------
Give measured IC50 for each item. Keep answers brief.
TARGET SYSTEM: Cloned Human Serotonin Receptor, Subtype 7 (h5HT7), expressed in CHO cells (Homo sapiens)
Construct: purchased PerkinElmer 6120512; host or cells: CHO cells (membranes coated on FlashPlate)
ASSAY PROTOCOL: Radioligand binding, [125I]LSD, Flashplate
TEST CONTEXT: radioligand [125I]LSD 0.82 nM; triplicate determinations; read-out: IC50
Experimental: Radioligand binding assays were performed using the Cloned Human Serotonin Receptor, Subtype 7 (h5HT7), expressed in CHO cells, coated on Flashplate (Basic FlashPlate Cat.: SMP200) from PerkinElmer (Cat.: 6120512). […] Nonspecific binding was determined with 50 μM of Clozapine. […] The radioactivity were quantified by liquid scintillation spectrophotometry (Wallac 1450 Microbeta Trilux) with a count delay of 4 minutes prior to counting and a counting time of 30 seconds per well. […]
// note: answer is a bare numeric in nM

**Query** Entry CN(C)S(=O)(=O)c1ccc2[nH]cc(CCN)c2c1 needs its IC50 filled in; supply it.
**Result** 173

**Query** Entry CC(C)Oc1ccccc1N1CCN(Cc2ccc(-n3ccnc3)cc2)CC1 needs its IC50 filled in; supply it.
**Result** 278

**Query** Entry O=c1[nH]c2ccccc2n1C1=CCN(CCCOc2ccccc2)CC1 needs its IC50 filled in; supply it.
**Result** 1260

**Query** Entry O=c1[nH]c2ccccc2n1C1=CCN(CCOc2ccccc2)CC1 needs its IC50 filled in; supply it.
**Result** 314

**Query** Entry COc1ccccc1N1CCN(CCC(=O)Nc2ccc3c(c2)CCC3)CC1 needs its IC50 filled in; supply it.
**Result** 1390

**Query** Entry COc1ccccc1N1CCN(CCC(O)c2ccccc2)CC1 (stereo not shown) needs its IC50 filled in; supply it.
**Result** 139

**Query** Entry O=c1[nH]c2ccccc2n1C1CCN(CCOc2ccccc2)CC1 needs its IC50 filled in; supply it.
**Result** 236

----------
TARGET SYSTEM: Cloned Human Serotonin Receptor, Subtype 7 (h5HT7), expressed in CHO cells (Homo sapiens, UniProt P34969)
Construct: purchased PerkinElmer 6120512; host or cells: CHO cells (membranes coated on FlashPlate)
ASSAY PROTOCOL: Radioligand binding, [125I]LSD, Flashplate
TEST CONTEXT: read-out: %-Inhib. (10^−6 M)
ASSAY METRIC: inhibition at 1 µM (%)
// note: answer is a bare numeric in %

**Query** Entry O=c1[nH]c2ccccc2n1C1=CCN(CCCOc2ccccc2)CC1 needs its inhibition at 1 µM filled in; supply it.
**Result** 67.6

**Query** Entry CC(C)Oc1ccccc1N1CCN(Cc2ccc(-n3ccnc3)cc2)CC1 needs its inhibition at 1 µM filled in; supply it.
**Result** 74.3

**Query** Entry CCOc1ccccc1N1CCN(Cc2c[nH]c3ccccc23)CC1 needs its inhibition at 1 µM filled in; supply it.
**Result** 70

**Query** Entry CN(C)S(=O)(=O)c1ccc2[nH]cc(CCN)c2c1 needs its inhibition at 1 µM filled in; supply it.
**Result** 84.3

**Query** Entry O=C(c1cccs1)C1CN2CCC1CC2 (stereo not drawn) [quinuclidin-3-yl(thiophen-2-yl)methanone] needs its inhibition at 1 µM filled in; supply it.
**Result** 52.1

**Query** Entry COc1ccc(C(C)C)cc1CN1CCN(c2cccc3[nH]ccc23)CC1 needs its inhibition at 1 µM filled in; supply it.
**Result** 76.6
